Reference source: paper PMC9032693

GI50 values for the compounds below.
Tested on: Jurkat
experiment: Antiproliferative activity, resazurin assay, 72 h
Type: cell-based, human

Reference set (5 entries):
[[record]]
chemical_string = "[Br-].[Br-].c1cc2c(N3CCCCC3)nc[n+](Cc3ccc(OCCOc4ccc(C[n+]5cnc(N6CCCCC6)c6ccsc65)cc4)cc3)c2s1"
result = "> 10 µM"

[[record]]
chemical_string = "[Br-].[Br-].c1cc2c(N3CCCCC3)nc[n+](Cc3ccc(CCc4ccc(C[n+]5cnc(N6CCCCC6)c6ccsc65)cc4)cc3)c2s1"
result = "> 10 µM"

[[record]]
chemical_string = "[Br-].[Br-].c1cc2c(N3CCCCCC3)nc[n+](Cc3ccc(CCc4ccc(C[n+]5cnc(N6CCCCCC6)c6ccsc65)cc4)cc3)c2s1"
result = "4.72 µM"

[[record]]
chemical_string = "[Br-].[Br-].c1cc2c(s1)c(N1CCCCC1)nc[n+]2Cc1ccc(OCCOc2ccc(C[n+]3cnc(N4CCCCC4)c4sccc43)cc2)cc1"
result = "> 10 µM"

[[record]]
chemical_string = "[Br-].[Br-].c1cc2c(s1)c(N1CCCCCC1)nc[n+]2Cc1ccc(OCCOc2ccc(C[n+]3cnc(N4CCCCCC4)c4sccc43)cc2)cc1"
result = "6.1 µM"


For the compound `[Br-].[Br-].c1cc2c(N3CCCC3)nc[n+](Cc3ccc(OCCOc4ccc(C[n+]5cnc(N6CCCC6)c6ccsc65)cc4)cc3)c2s1` , what GI50 is on record?
> 10 µM
